Hello, the source for this data is patent US20160185837A1, in case you need it.

- SYSTEM: human GLP-1 receptor (human) (UniProt P43220)
- Sequence (P43220 24-463): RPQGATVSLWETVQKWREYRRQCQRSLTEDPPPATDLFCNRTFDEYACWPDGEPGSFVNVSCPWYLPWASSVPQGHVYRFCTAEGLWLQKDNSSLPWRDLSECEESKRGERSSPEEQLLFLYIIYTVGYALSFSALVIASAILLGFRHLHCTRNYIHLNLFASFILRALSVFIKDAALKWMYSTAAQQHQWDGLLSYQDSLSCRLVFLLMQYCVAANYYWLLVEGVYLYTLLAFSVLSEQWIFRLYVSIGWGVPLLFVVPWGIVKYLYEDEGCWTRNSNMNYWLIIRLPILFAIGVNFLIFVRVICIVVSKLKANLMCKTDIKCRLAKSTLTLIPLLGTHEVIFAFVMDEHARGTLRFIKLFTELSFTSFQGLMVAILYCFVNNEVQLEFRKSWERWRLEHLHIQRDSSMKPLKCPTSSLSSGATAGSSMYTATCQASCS
- ASSAY PROCEDURE: cell-based or functional assay
The label depends only on cAMP EC50: 1 if it is at least 0.6 nM, -1 if it is smaller.

Confirm if cAMP EC50 reported for the binder IP404 (Fc fusion) YSEGTFTSLYRIHKERQAIDEFIAKLLKGGGSGGGGSGGGGSGGGGSGGGGSGGGGSGGGGSGGGGSACPPC is 0.6 nM or above. 1

Does IP305 (Fc fusion) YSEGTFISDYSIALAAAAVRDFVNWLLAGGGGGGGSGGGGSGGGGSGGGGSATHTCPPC have a reported cAMP EC50 of at least 0.6 nM? 1

Is reported cAMP EC50 greater than or equal to 0.6 nM here: IP275 (Fc fusion) YSEGTFTSDYSKLLEKEAQRLFIEWLLKGPGGGGGSGGGGSGGGGSGGGGSATHTCPPC 1

Kindly determine if cAMP EC50 recorded for IP394 (Fc fusion) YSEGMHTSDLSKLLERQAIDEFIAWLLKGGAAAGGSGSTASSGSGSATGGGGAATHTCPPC is above or exactly 0.6 nM. -1

I'd appreciate it if you could say whether IP398 (Fc fusion) YSEGTFISDYSIAMDKIHQQDFVNWLLAQKGKKNDWKHNITQGGGGSGGGGSGGGGSGGGGSGGGGSGGGGSACPPC has cAMP EC50 at least equal to 0.6 nM. 1

Has IP311 (Fc fusion) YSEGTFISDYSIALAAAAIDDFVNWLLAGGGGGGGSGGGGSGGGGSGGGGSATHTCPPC a recorded cAMP EC50 greater than or equal to 0.6 nM? 1

Check this binder for cAMP EC50 at or above 0.6 nM: IP302 (Fc fusion) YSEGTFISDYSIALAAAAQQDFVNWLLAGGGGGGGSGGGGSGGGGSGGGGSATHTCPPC 1

Threshold query (cAMP EC50 >= 0.6 nM) on IP351 (Fc fusion) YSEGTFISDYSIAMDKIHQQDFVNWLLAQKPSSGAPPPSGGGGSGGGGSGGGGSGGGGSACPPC 1

Given IP208 (Fc fusion) YSEGTFTSDVSSYLEGQAAKEFIAWLLAGAAAGGSGSTASSGSGSATGGGGAATHTCPPCPAPEF , state whether its cAMP EC50 is at least 0.6 nM. 1

I'd appreciate it if you could say whether IP199 (Fc fusion) HGEGTFTSDVSSYLEGQAAKEFIAWLLAGAAAGGSGSTASSGSGSATGGGGAATHTCPPCPAPEF has cAMP EC50 at least equal to 0.6 nM. -1

Could you verify whether the entry IP337 (Fc fusion) YSEGTFISDYSIAMDKIHQQDFVNWLLAQKGGGGGSGGGGSGGGGSGGGGSGGGGSGGGGSGGGGSA shows cAMP EC50 of no less than 0.6 nM? 1

Check if cAMP EC50 >= 0.6 nM (inclusive). Item: IP408 (Fc fusion) YSEGTHTSDLRILLERQAIDEFIAKLLKGGGSGGGGSGGGGSGGGGSGGGGSGGGGSGGGGSGGGGSACPPC 1

Reported cAMP EC50 reaches at least 0.6 nM for IP386 (Fc fusion) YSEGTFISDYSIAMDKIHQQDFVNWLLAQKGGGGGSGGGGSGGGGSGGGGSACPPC ? 1

Determine whether measured cAMP EC50 meets or exceeds 0.6 nM for IP223 (Fc fusion) YSEGTFTSDVSSYMEEEAIDEFIAWLLKGGAAAGGSGSTASSGSGSATGGGGAATHTCPPCPAPEF 1

Is reported cAMP EC50 greater than or equal to 0.6 nM here: IP307 (Fc fusion) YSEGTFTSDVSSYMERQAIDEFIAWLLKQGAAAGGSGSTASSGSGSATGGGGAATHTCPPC 1

Entry IP420 (Fc fusion) YSEGTFTSDYSKLLEEEATRLFIEWLLAGGGGGGSGGGGSGGGGSGGGGSATHTCPPC : is its cAMP EC50 no less than 0.6 nM? -1

Could you tell me if the measured cAMP EC50 of IP380 (Fc fusion) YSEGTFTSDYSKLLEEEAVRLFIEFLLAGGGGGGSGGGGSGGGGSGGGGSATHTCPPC reaches 0.6 nM or more? -1

# bool: cAMP EC50 of IP381 (Fc fusion) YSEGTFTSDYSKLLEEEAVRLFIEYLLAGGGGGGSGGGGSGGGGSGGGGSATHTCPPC >= 0.6 nM -1

Reported cAMP EC50 at or above 0.6 nM? IP301 (Fc fusion) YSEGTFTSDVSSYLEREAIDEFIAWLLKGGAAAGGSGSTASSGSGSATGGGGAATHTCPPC -1

Quick check: does IP422 (Fc fusion) YSEGTHTSDLRILLERQAIDEFIAFLLKGGGSGGGGSGGGGSGGGGSGGGGSGGGGSGGGGSGGGGSACPPC have cAMP EC50 greater than or equal to 0.6 nM? 1
